Source: patent US20210188843A1

ASSAY NOTES: PAMPA permeability
Type: in vitro ADME
CONDITION LABEL: Table 1
Where Papp equals or exceeds 2000 nm/s, the correct label is t; where it does not, the label is f.

>  <SMILES RECORD>
Cc1ccc(C#N)cc1-n1c(=N)n(C)c2cnc3ccc(-c4ccc(F)cc4)cc3c21

>  <CATEGORY LABEL>
t

$$$$

[in] Answer whether Papp of `COC(=O)/N=c1\n(C)c2cnc3ccc(-c4ccc(C)nc4)cc3c2n1-c1cc(C#N)ccc1C` is greater than or equal to 2000 nm/s.
[out] t

[in] Is Papp for `Cc1nc(N2CCN(C)CC2)c(C#N)cc1-n1c(=N)n(C)c2cnc3ccc(-c4cccc(F)c4)cc3c21` at or above 2000 nm/s?
[out] t

[in] Assess whether reported Papp for `C/N=c1\n(C)c2cnc3ccc(-c4ccc(Cl)cc4)cc3c2n1-c1cc(C#N)ccc1C` sits at 2000 nm/s or higher.
[out] t

[in] Determine whether measured Papp meets or exceeds 2000 nm/s for `COC(=O)/N=c1\n(C)c2cnc3ccc(-c4ccc(C)cc4)cc3c2n1-c1cc(C#N)c(N2CCN(C)CC2)cc1C`
[out] t

[in] For this molecule, is measured Papp 2000 nm/s or higher? `Cc1cc(N2CC3(COC3)C2)c(C#N)cc1-n1c(=N)n(C)c2cnc3ccc(-c4ccc(Cl)cc4)cc3c21`
[out] f

[in] Quick check: does `Cc1ccc(C#N)cc1-n1c(=N)n(C)c2cnc3ccc(-c4ccc5[nH]ncc5c4)cc3c21` have Papp greater than or equal to 2000 nm/s?
[out] f

[in] API: above_or_equal(metric=Papp, cutoff=2000 nm/s) for item `Cc1ccc(-c2ccc3ncc4c(c3c2)n(-c2cc(C#N)c(N3CCOCC3)cc2C)c(=N)n4C)cc1`
[out] t

[in] Textbook exercise: given the entry `Cc1ccc(C#N)cc1-n1c(=N)n(C)c2cnc3ccc(-c4ccccn4)cc3c21` , state whether its Papp is greater than or equal to 2000 nm/s.
[out] t

[in] Hi, just wondering whether `Cc1ccc(C#N)cc1-n1c(=N)n(C)c2cnc3ccc(C#Cc4ccc(Cl)cc4)cc3c21` shows Papp of 2000 nm/s or higher.
[out] t
